test: Thermodynamic solubility; type: physicochemical; settings: aqueous buffer, thermodynamic from solid; thermodynamic solubility, buffer pH 6.8, 24-hr incubation at room temperature; read-out: Solubility (pH 6.8)
valueType: solubility at 24 h (µM)
Please state the figure in µM; there is no need to write the unit.

Recorded solubility at 24 h of C=C[C@@H]1C[C@]1(NC(=O)[C@@H]1C[C@@]2(CN1C(=O)[C@@H](NC(=O)[C@@H](NC(=O)[C@@H]1CCCCN1C(C)C)C(C)(C)C)C(C)(C)C)C(C)(C)C21CCC1)C(=O)NS(=O)(=O)C1CC1 , please.
840

###

assay: Thermodynamic solubility; type: physicochemical; details: pH 1, simulated gastric fluid, thermodynamic from solid
valueType: solubility at 24 h (µM)
Only the number, expressed in µM, is required.

Given CCC[C@H](NC(=O)[C@@H]1C[C@@]2(CN1C(=O)[C@@H](NC(=O)[C@@H](NC(=O)[C@@H]1CCCN(C)C1)C(C)(C)C)C1CCCCC1)C(C)(C)C21CCC1)C(=O)C(=O)NC1CC1 , state its recorded solubility at 24 h.
840

I'd like to know its solubility at 24 h. The compound in question is CCC[C@H](NC(=O)[C@@H]1C[C@@]2(CN1C(=O)[C@@H](NC(=O)[C@@H](NC(=O)[C@H]1CCCCN1C(C)C)C1CCCCC1)C(C)(C)C)C(C)(C)C21CCC1)C(=O)C(=O)NC1CC1
480

State the recorded solubility at 24 h for this entry: CCC[C@H](NC(=O)[C@@H]1C[C@@]2(CN1C(=O)[C@@H](NC(=O)[C@@H](NC(=O)[C@@H]1CN(C)CCN1C(C)C)C1CCCCC1)C(C)(C)C)C(C)(C)C21CCC1)C(=O)C(=O)NC1CC1
640

What value of solubility at 24 h has been recorded for this entry: CCCC(NC(=O)[C@@H]1C[C@@]2(CN1C(=O)[C@@H](NC(=O)[C@@H](NC(=O)[C@@H]1CCCN(C(C)C)C1)C1CCCCC1)C(C)(C)C)C(C)(C)C21CCC1)C(=O)C(=O)NC1CC1 (stereo in doubt)
630

Param item = CCC[C@H](NC(=O)[C@@H]1C[C@@]2(CN1C(=O)[C@@H](NC(=O)[C@@H](NC(=O)[C@@H]1CCCCN1C(C)C)C(C)(C)C)C(C)(C)C)C(C)(C)C21CCC1)C(=O)C(=O)NC1CCC1 ; retrieve measured solubility at 24 h.
830

State the recorded solubility at 24 h for this entry: CCC[C@H](NC(=O)[C@@H]1C[C@@]2(CN1C(=O)[C@@H](NC(=O)[C@@H](NC(=O)[C@@H]1CCN1C(C)C)C(C)(C)C)C(C)(C)C)C(C)(C)C21CCC1)C(=O)C(=O)NC1CC1
810

Fill blank: measured solubility at 24 h of the compound CCC[C@H](NC(=O)[C@@H]1C[C@@]2(CN1C(=O)[C@@H](NC(=O)[C@@H](NC(=O)[C@@H]1CCCCN1C(C)C)C(C)(C)C)C1CCCCC1)C(C)(C)C21CCC1)C(=O)C(=O)NC1CC1 is ____.
720

Requested read-out: solubility at 24 h. Entry: CCCC(NC(=O)[C@@H]1C[C@@]2(CN1C(=O)[C@@H](NC(=O)[C@@H](NC(=O)C1CCN1C(C)(C)C)C1CCCCC1)C(C)(C)C)C(C)(C)C21CCC1)C(=O)C(=O)NC1CC1 (some centres unmarked)
710

###

test: Thermodynamic solubility; assay type: physicochemical; conditions: pH 1, simulated gastric fluid, thermodynamic from solid
For each of the compounds below, state its solubility at 24 h.
Give your result as the value with the unit written after it.

May I ask what solubility at 24 h has been recorded for CCC[C@H](NC(=O)[C@@H]1C[C@@]2(CN1C(=O)[C@@H](NC(=O)[C@@H](NC(=O)[C@@H]1CCCCN1C(C)C)C(C)(C)C)C(C)(C)C)C(C)(C)C21CCC1)C(=O)C(=O)NC1CC1 [Compound A-44] ?
690 µM

Can you look up the measured solubility at 24 h of CCC[C@H](NC(=O)[C@@H]1C[C@@]2(CN1C(=O)[C@@H](NC(=O)[C@@H](NC(=O)[C@H]1CCCN(C)C1)C(C)(C)C)C1CCCCC1)C(C)(C)C21CCC1)C(=O)C(=O)NC1CC1 [Compound A-67] for me?
740 µM

If you can, please state the reported solubility at 24 h value of CCC[C@H](NC(=O)[C@@H]1C[C@@]2(CN1C(=O)[C@@H](NC(=O)[C@@H](NC(=O)[C@@H]1CCCN(CC)C1)C1CCCCC1)C(C)(C)C)C(C)(C)C21CCC1)C(=O)C(=O)NC1CC1 [Compound A-15] .
700 µM

Endpoint output: solubility at 24 h of CCC[C@H](NC(=O)[C@@H]1C[C@@]2(CN1C(=O)[C@@H](NC(=O)[C@@H](NC(=O)[C@@H]1CCCN1C)C1CCCCC1)C(C)(C)C)C(C)(C)C21CCC1)C(=O)C(=O)NC1CC1 [Compound A-33] . Value?
790 µM

For the compound CCC[C@H](NC(=O)[C@@H]1C[C@@]2(CN1C(=O)[C@@H](NC(=O)[C@@H](NC(=O)[C@@H]1CCCN(C)C1)C1CCCCC1)C(C)(C)C)C(C)(C)C21CCC1)C(=O)C(=O)NC1CC1 [Compound A-50] , what solubility at 24 h is on record?
830 µM

###

experiment: Thermodynamic solubility; type: physicochemical; details: pH 1, simulated gastric fluid, thermodynamic from solid
valueType: solubility at 24 h (µM)
Supply the numeric figure in µM, leaving out any unit text.

What value of measured solubility at 24 h is listed for CCC[C@H](NC(=O)C1C[C@@]2(CN1C(=O)[C@@H](NC(=O)[C@@H](NC(=O)[C@H]1CCCN1CC)C1CCCCC1)C(C)(C)C)C(C)(C)C21CCC1)C(=O)C(=O)NC1CC1 (some centres unmarked) ?
870

Data request, read-out solubility at 24 h, for CCC[C@H](NC(=O)[C@@H]1C[C@@]2(CN1C(=O)[C@@H](NC(=O)[C@@H](NC(=O)[C@@H]1CCN1C(C)C)C1CCCCC1)C(C)(C)C)C(C)(C)C21CCC1)C(=O)C(=O)NC1CC1
930

Fill in the blank: the reported solubility at 24 h of CCC[C@H](NC(=O)C1C[C@@]2(CN1C(=O)[C@@H](NC(=O)[C@@H](NC(=O)[C@@H]1CCCN1CC)C1CCCCC1)C(C)(C)C)C(C)(C)C21CCC1)C(=O)C(=O)NC1CC1 (some centres unmarked) is ____.
910

Give its solubility at 24 h value. Item: CCC[C@H](NC(=O)[C@@H]1C[C@@]2(CN1C(=O)[C@@H](NC(=O)[C@@H](NC(=O)[C@@H]1CCCCN1C(C)C)C1CCCCC1)C(C)(C)C)C(C)(C)C21CCC1)C(=O)C(=O)NC1CC1
930

Which value of solubility at 24 h has been reported for CCC[C@H](NC(=O)[C@@H]1C[C@@]2(CN1C(=O)[C@@H](NC(=O)[C@@H](NC(=O)[C@@H]1CCCCN1C(C)C)C1CCCCC1)C(C)(C)C)C(C)(C)C21CCC1)C(=O)C(=O)NC(C)C in the records?
790

###

assay: Thermodynamic solubility; format: physicochemical; conditions: simulated gastric fluid, thermodynamic from solid; thermodynamic solubility, buffer pH 1.0, 24-hr incubation at room temperature; read-out: Solubility (pH 1)
valueType: solubility at 24 h

Looking for the measured solubility at 24 h of C=C[C@@H]1C[C@]1(NC(=O)[C@@H]1C[C@@]2(CN1C(=O)[C@@H](NC(=O)[C@@H](NC(=O)[C@@H]1CCCCN1C(C)C)C(C)(C)C)C(C)(C)C)C(C)(C)C21CCC1)C(=O)NS(=O)(=O)C1CC1 , can you help?
900 µM

###

Please respond with reported solubility at 24 h for every item in the list.
assay: Thermodynamic solubility; type: physicochemical; conditions: pH 6.8, aqueous buffer, thermodynamic from solid

Recorded solubility at 24 h for CCC[C@H](NC(=O)[C@@H]1C[C@@]2(CN1C(=O)[C@@H](NC(=O)[C@@H](NC(=O)[C@@H]1CCN1C(C)C)C1CCCCC1)C(C)(C)C)C(C)(C)C21CCC1)C(=O)C(=O)NC1CC1 , please?
< 5 µM

Any idea what its solubility at 24 h is? The compound is CCC[C@H](NC(=O)[C@@H]1C[C@@]2(CN1C(=O)[C@@H](NC(=O)[C@@H](NC(=O)[C@@H]1CCCCN1C(C)C)C(C)(C)C)C(C)(C)C)C(C)(C)C21CCC1)C(=O)C(=O)NC1CCC1
< 5 µM

So what's the measured solubility at 24 h for this one? CCCC(NC(=O)[C@@H]1C[C@@]2(CN1C(=O)[C@@H](NC(=O)[C@@H](NC(=O)C1CCN1C(C)(C)C)C1CCCCC1)C(C)(C)C)C(C)(C)C21CCC1)C(=O)C(=O)NC1CC1 (stereo partly shown)
< 85 µM

So what's the measured solubility at 24 h for this one? CCC[C@H](NC(=O)[C@@H]1C[C@@]2(CN1C(=O)[C@@H](NC(=O)[C@@H](NC(=O)[C@@H]1CCN1C(C)C)C(C)(C)C)C(C)(C)C)C(C)(C)C21CCC1)C(=O)C(=O)NC1CC1
< 5 µM
